# Test: Rat pharmacokinetics after IA injection (plasma, knee joint)
# Assay type: in vivo, Sprague Dawley rats
# Assay Context: Sprague Dawley, rat, cartilage, other: intra-articular injection; rats, single IA, 9 μg/knee, Day 30; read-out: Formula (I) concentration, Cartilage
Reported Property: concentration at 30 day (ng/g)
Field format: number, assumed ng/g, no unit text.

Query string: Given the molecule CC(C)CC(=O)Nc1cncc(-c2ccc3[nH]nc(-c4nc5c(-c6cccc(F)c6)cncc5[nH]4)c3c2)c1 [compound of Formula (I)] , what is its reported concentration at 30 day?
Result string: 3560

====

# Test: Rat pharmacokinetics after IA injection (plasma, knee joint)
# Assay type: in vivo, Sprague Dawley rats
# Assay Context: Sprague Dawley, rat, cartilage, other: intra-articular injection; rats, single IA, 3 μg/knee, Day 30; read-out: Formula (I) concentration, Cartilage
Reported Property: concentration at 30 day
# include the unit after the value

Query string: Given the molecule CC(C)CC(=O)Nc1cncc(-c2ccc3[nH]nc(-c4nc5c(-c6cccc(F)c6)cncc5[nH]4)c3c2)c1 , what is its reported concentration at 30 day?
Result string: 2570 ng/g
